Provenance of the data: ChEMBL document CHEMBL1148395

test: Partition coefficient (logP); assay type: physicochemical; details: octanol/water

{"columns": ["Molecule", "logP"],
 "data": [
  ["CN(C)/C(=N\\S(=O)(=O)c1ccc(Cl)cc1)N1CC(c2ccccc2)C(c2ccc(Cl)cc2)=N1 (stereo not drawn)", 4.8],
  ["NC(=NS(=O)(=O)c1ccc(Cl)cc1)N1CC(c2ccccc2)C(c2ccc(Cl)cc2)=N1 (stereo not drawn)", 4.3],
  ["CN=C(NS(=O)(=O)c1ccc(Cl)cc1)N1C[C@H](c2ccccc2)C(c2ccc(Cl)cc2)=N1 [IBIPINABANT]", 4.8]
]}

----------
target: Cannabinoid receptor 1 (Rattus norvegicus); experiment: In vivo effective dose to antagonise cannabinoid receptor 1 agonist (CP-55940) induced hypotension in rat upon peroral administration; type: functional, organism-based
Parameter measured: ED50 (mg/kg)

{"columns": ["Compound", "Target under test", "Parameter measured", "Inequality symbol", "Experimental value"],
 "data": [
  ["CN/C(=N\\S(=O)(=O)c1ccc(Cl)cc1)N1CC(c2ccccc2)C(c2ccc(Cl)cc2)=N1 (centres undefined)", "Cannabinoid receptor 1 (Rattus norvegicus)", "ED50", "=", 15],
  ["CN/C(=N\\S(=O)(=O)c1ccc(Cl)cc1)N1C[C@H](c2ccccc2)C(c2ccc(Cl)cc2)=N1", "Cannabinoid receptor 1 (Rattus norvegicus)", "ED50", "=", 5.5],
  ["N=C(NS(=O)(=O)c1ccc(Cl)cc1)N1CC(c2ccccc2)C(c2ccc(Cl)cc2)=N1 (centres undefined)", "Cannabinoid receptor 1 (Rattus norvegicus)", "ED50", ">", 30],
  ["CN(C)/C(=N\\S(=O)(=O)c1ccc(Cl)cc1)N1CC(c2ccccc2)C(c2ccc(Cl)cc2)=N1 (centres undefined)", "Cannabinoid receptor 1 (Rattus norvegicus)", "ED50", ">", 30],
  ["C/N=C(\\NS(=O)(=O)c1ccc(C(F)(F)F)cc1)N1C[C@@H](c2ccccc2)C(c2ccc(Cl)cc2)=N1", "Cannabinoid receptor 1 (Rattus norvegicus)", "ED50", ">", 30],
  ["C/N=C(\\NS(=O)(=O)c1ccc(C(F)(F)F)cc1)N1CC(c2ccccc2)C(c2ccc(Cl)cc2)=N1 (centres undefined)", "Cannabinoid receptor 1 (Rattus norvegicus)", "ED50", "=", 8.9],
  ["C/N=C(\\NS(=O)(=O)c1ccc(Cl)cc1)N1C[C@@H](c2ccccc2)C(c2ccc(Cl)cc2)=N1", "Cannabinoid receptor 1 (Rattus norvegicus)", "ED50", ">", 30],
  ["Cc1ccc(S(=O)(=O)NC(=N)N2CC(c3ccccc3)C(c3ccc(Cl)cc3)=N2)cc1 (centres undefined)", "Cannabinoid receptor 1 (Rattus norvegicus)", "ED50", ">", 30],
  ["C/N=C(\\NS(=O)(=O)c1ccc(C(F)(F)F)cc1)N1C[C@H](c2ccccc2)C(c2ccc(Cl)cc2)=N1", "Cannabinoid receptor 1 (Rattus norvegicus)", "ED50", "=", 2]
]}
